# System: nutrient lipid (PUFA, MUFA) peroxidation
# test: Inhibition of nutrient lipid peroxidation, in vitro, iodometric titration
Values of Concentration needed for 50% inhibition, Lipid Peroxidation greater than or equal to 10% map to 1.0; values below map to 0.0.

molecule	category
O=C1O[C@H]([C@@H](O)CO)C(O)=C1O [Antioxidant (Ascorbic Acid), Ascorbic Acid]	1.0
NC(=O)c1cccnc1 [Antioxidant (Niacinamide), Niacinamide]	1.0
Oc1ccc(C=Cc2cc(O)cc(O)c2)cc1 [Phenol (Resveratrol), Resveratrol]	0.0
O=C(O[C@@H]1Cc2c(O)cc(O)cc2O[C@@H]1c1cc(O)c(O)c(O)c1)c1cc(O)c(O)c(O)c1 [Catechin (EGCG), EGCG]	0.0
NCCC(=O)N[C@@H](Cc1cnc[nH]1)C(=O)O	1.0
